Exercise: for every item that follows, state its recorded TGI.
- Test system: HOP-62 NSCLC
- Experiment notes: NCI tumour cell line growth inhibition, 48 h

The measured TGI associated with "S=C1SC2=Nc3ccccc3CN2C2=NCCN12" reads > 100 µM

The measured TGI associated with "COC(=O)c1cccc2cccc(C(=O)Nc3ccc(Cl)cc3)c12" reads > 100 µM

The measured TGI associated with "C/C(=N\NC(=S)N1CC2CCC(CC2)C1)c1ccccn1" reads 1.69 µM

The measured TGI associated with CC12CC1C(c1cccc([N+](=O)[O-])c1)(c1cccc([N+](=O)[O-])c1)N=N2 (centres undefined) reads > 100 µM
